The values you see were collected from ChEMBL document CHEMBL5584201.

test system: Acinetobacter baumannii; experiment: Potentiation of rifampicin-induced antibacterial activity against Acinetobacter baumannii ATCC 17978 assessed as rifampicin MIC in low salt containing media by Mueller-Hinton broth based assay; type: functional
endpoint: MIC (µg/mL)

The following compounds have reported results that may help.
CCCCCCO[C@@H]1O[C@H](CN)[C@H](N)[C@H](OCc2ccc3ccccc3c2)[C@H]1N
16
NC[C@H]1O[C@@H](OCCCc2ccccc2)[C@H](N)[C@@H](OCc2ccc3ccccc3c2)[C@H]1N
16
CCCCCCCCO[C@@H]1O[C@H](CN)[C@H](N)[C@H](OCc2ccc3ccccc3c2)[C@H]1N
4
CCCCCCCCO[C@@H]1O[C@H](CN)[C@H](N)[C@H](OCc2ccc3cccnc3c2)[C@H]1N
8
NC[C@H]1O[C@@H](OCCC23CC4CC(CC(C4)C2)C3)[C@H](N)[C@@H](OCc2ccc3ccccc3c2)[C@H]1N
4
CCCCCCCCO[C@H]1[C@@H](N)[C@@H](CN=[N+]=[N-])O[C@@H](OCc2ccc3ccccc3c2)[C@@H]1N
4

[P] CCCCCCCCO[C@H]1[C@@H](N)[C@@H](CN=[N+]=[N-])O[C@H](OCc2ccc3ccccc3c2)[C@@H]1N
[Q] CCCCCCCCO[C@@H]1O[C@H](CN)[C@H](N)[C@H](OCc2ccccc2)[C@H]1N
[R] CCCCCCCCO[C@@H]1O[C@H](CO)[C@H](N)[C@H](OCc2ccc3ccccc3c2)[C@H]1N
[S] CCCCCCCCCCCCO[C@@H]1O[C@H](CN)[C@H](N)[C@H](OCc2ccc3ccccc3c2)[C@H]1N
Exercise: rank_up(items): orders items by reported MIC in ascending numerical order. Labels, requested order.
Key: S, P, R, Q
(S: 1 µg/mL, P: 4 µg/mL, R: 8 µg/mL, Q: 16 µg/mL)

----------
system: Acinetobacter baumannii; assay: Antibacterial activity against Acinetobacter baumannii ATCC 17978 in low salt containing media by Mueller-Hinton broth based assay; assay type: functional
endpoint: MIC (µg/mL)

CCCCCCCCO[C@@H]1O[C@H](CO)[C@H](N)[C@H](OCc2ccc3ccccc3c2)[C@H]1N
32
NC[C@H]1O[C@@H](OCCCc2ccccc2)[C@H](N)[C@@H](OCc2ccc3ccccc3c2)[C@H]1N
128
NC[C@H]1O[C@@H](OCCC23CC4CC(CC(C4)C2)C3)[C@H](N)[C@@H](OCc2ccc3ccccc3c2)[C@H]1N
16

[1] CCCCCCCCO[C@@H]1O[C@H](CN)[C@H](N)[C@H](OCc2ccc3cccnc3c2)[C@H]1N
[2] CCCCCCCCO[C@H]1[C@@H](N)[C@@H](CN=[N+]=[N-])O[C@@H](OCc2ccc3ccccc3c2)[C@@H]1N
Exercise: Hi, I'm comparing two records. Which one has the lower MIC, 1 or 2 ? Field: selected label. Fill in the label of the entry you choose.
Key: 2
(2: 16 µg/mL, 1: 128 µg/mL)

[a] CCCCCCO[C@@H]1O[C@H](CN)[C@H](N)[C@H](OCc2ccc3ccccc3c2)[C@H]1N
[b] CCCCCCCCCCCCO[C@@H]1O[C@H](CN)[C@H](N)[C@H](OCc2ccc3ccccc3c2)[C@H]1N
Exercise: Which numeric MIC is bigger, that of a or that of b ? Mark your selection by writing its label.
Key: a

----------
tested on: Acinetobacter baumannii; test: Antibacterial activity against Acinetobacter baumannii ATCC 17978 in low salt containing media by Mueller-Hinton broth based assay; type: functional
endpoint: MIC (µg/mL)
Numbers only; they are read as µg/mL.

CCCCCCCCO[C@H]1[C@@H](N)[C@@H](CN=[N+]=[N-])O[C@H](OCc2ccc3ccccc3c2)[C@@H]1N
16

Exercise: Given CCCCCCCCO[C@@H]1O[C@H](CN)[C@H](N)[C@H](OCc2ccc3ccccc3c2)[C@H]1N , state its recorded MIC.
Key: 16
